Experiment: NCI Yeast Anticancer Drug Screen. Data for the mlh1 rad18 strain (AID 175)
Details: S. cerevisiae mlh1 rad18 strain growth inhibition; at 50.0 µM; hits give high values
Compounds without any hit were thinned out: in the full panel of roughly 79,000, 15% have a hit.
assay_readout: growth inhibition (%)
Quick reminder: number only, in %, skip the unit.

**Q:** Tell me the measured growth inhibition of N#C/C(=C\c1ccc2[nH]ccc2c1)C(=O)NCCCCNC(=O)/C(C#N)=C/c1ccc2[nH]ccc2c1 , please.
**A:** 5.7

**Q:** Now consider COc1cc(-c2cccs2)sc1-c1cccs1 and answer again.
**A:** 13.2

**Q:** Now consider O=S(=O)(Nc1cccc(C(F)(F)F)c1)c1ccc(F)cc1 and answer again.
**A:** 42.9

**Q:** Now consider Fc1ccccc1-c1ccccc1 and answer again.
**A:** -11.2

**Q:** Now consider O=c1c2c([nH]c(=S)n1-c1ccccc1)NCCC2 and answer again.
**A:** 0.4

**Q:** Now consider Cc1cc(C(=O)O)c2cc(Br)ccc2n1 and answer again.
**A:** -4.5

**Q:** Now consider O=C(O)c1c(Br)c(Br)c(Br)c(Br)c1C(=O)Nc1ccc(Br)cc1 and answer again.
**A:** 33.2

**Q:** Now consider CN(C)c1ccc(/C=N/NC(=O)c2cnc3ccccc3c2)cc1 and answer again.
**A:** 17.4

**Q:** Now consider CCCN(CCCCC(NC(C)=O)C(=O)NCc1ccccc1)C(=O)NC (centres undefined) and answer again.
**A:** -14.5

**Q:** Now consider CCCCOCN(COCCCC)CC(C)(C)C and answer again.
**A:** 19.3

**Q:** Now consider COc1cccc(Cc2cncc3c(O)c(OC)ccc23)c1O and answer again.
**A:** 9.95

**Q:** Now consider c1ccc(-c2nc(-c3ccccc3)c(-c3ccccc3)[nH]2)cc1 and answer again.
**A:** -36.2

**Q:** Now consider Cc1ncc(CO)c(CN)c1O and answer again.
**A:** -1.75

**Q:** Now consider Cc1cccc(SC(=O)Nc2cc([N+](=O)[O-])ccc2Cl)c1 and answer again.
**A:** 20.5

**Q:** Now consider CC(=O)NNC(=S)/N=C/C(C(=O)Nc1ccc([N+](=O)[O-])cc1)=C(\C)O and answer again.
**A:** -4

**Q:** Now consider Nc1ccc(Nc2c3ccccc3nc3ccccc23)cc1 and answer again.
**A:** 69.3

**Q:** Now consider COC(=O)CCC(=O)Nc1cc(Cl)ccc1Cl and answer again.
**A:** 6.3

**Q:** Now consider O=S(=O)(O)Cc1cccc2ccccc12 and answer again.
**A:** 22.6

**Q:** Now consider NC(CSC(c1ccccc1)(c1ccccc1)c1ccccc1)C(=O)OC(c1ccccc1)c1ccccc1 (centres undefined) and answer again.
**A:** 22.2

**Q:** Now consider COc1ccc(NC(=O)c2c(Br)c(Br)c(Br)c(Br)c2C(=O)O)c(Cl)c1 and answer again.
**A:** 95.2

**Q:** Now consider O=C1c2ccccc2C(=O)C1(O)c1c[nH]c2ccccc12 and answer again.
**A:** 23.6

**Q:** Now consider CCC(=O)N(C)[C@@H]1Oc2ccc(O)cc2[C@]1(C)c1cc(O)ccc1O and answer again.
**A:** 9.95

**Q:** Now consider O=C1OCC2Cc3ccccc3C(c3ccccc3)=C12 (centres undefined) and answer again.
**A:** -1

**Q:** Now consider CC1(O)CCC(C(C)(C)C)CC1 (centres undefined) and answer again.
**A:** 11.1
